Entry source: the supplement of paper PMC11451515

System: NOMO1
measurement.protocol: cell viability relative to DMSO control; higher = less cytotoxic
conditions: HPLM + 10% dialyzed FBS; 48 h; 46.1 µM
// assign true if cell viability falls strictly below 50%, else false (ties count as false)

cell viability strictly < 50% for this compound? OCc1ccc(-c2nn(Cc3ccccc3)c3ccccc23)o1
true

cell viability strictly < 50% for this compound? O=C(CO)N1CCC(c2n[nH]c(-c3ccc(Cl)cc3)c2-c2ccncn2)CC1
false

cell viability strictly < 50% for this compound? Cn1c(Nc2ccc(C(F)(F)F)cc2)nc2cc(Oc3ccnc(-c4nc(C(F)(F)F)c[nH]4)c3)ccc21
true

cell viability strictly < 50% for this compound? C\C1=C\N([C@H]2C[C@H](N=[N+]=[N-])[C@@H](CO)O2)C(=O)NC1=O
true

cell viability strictly < 50% for this compound? CCc1c(C(=O)C(N)=O)c2c(OCC(=O)O)cccc2n1Cc1ccccc1
false
